The measured values listed here are drawn from the supplement of paper PMC6555819.

Tested on: THRa homodimer (NR concentration 90 nM)
assay_text: PBM binding z-score (relative to random genomic background probes); higher = stronger binding; sequences stand for … in GC…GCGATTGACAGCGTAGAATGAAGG

>  <primary_sequence>
CATACAGGGTCTGCTAGGCCAGAGTAGGGACGGC

>  <PBM binding z-score>
-0.32

$$$$
>  <primary_sequence>
CGAACGAGAGCATGAGTTGATAGCAAATGCCGAT

>  <PBM binding z-score>
-1.07

$$$$
>  <primary_sequence>
TCTTGTAGATCAGCAGGTTAAGTAAGCTGGCCAA

>  <PBM binding z-score>
-0.0624

$$$$
>  <primary_sequence>
CGAACTAGGTCATTGACAGGACAGAGAATAGTAA

>  <PBM binding z-score>
0.787

$$$$
>  <primary_sequence>
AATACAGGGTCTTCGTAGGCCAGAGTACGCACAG

>  <PBM binding z-score>
-0.387

$$$$
>  <primary_sequence>
CCTACTGGGCCAAAGGTAATTGATTCCAATGCTC

>  <PBM binding z-score>
-0.123

$$$$
>  <primary_sequence>
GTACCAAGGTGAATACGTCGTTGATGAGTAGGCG

>  <PBM binding z-score>
0.199

$$$$
>  <primary_sequence>
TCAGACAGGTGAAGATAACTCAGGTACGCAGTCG

>  <PBM binding z-score>
0.4

$$$$
>  <primary_sequence>
CCGAGTAGGTTATGGGGCATTCAAGCAACGGTGA

>  <PBM binding z-score>
0.0762

$$$$
>  <primary_sequence>
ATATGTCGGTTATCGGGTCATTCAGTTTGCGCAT

>  <PBM binding z-score>
2.54

$$$$
>  <primary_sequence>
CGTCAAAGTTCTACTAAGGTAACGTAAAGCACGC

>  <PBM binding z-score>
1.49

$$$$
>  <primary_sequence>
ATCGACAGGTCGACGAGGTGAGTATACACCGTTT

>  <PBM binding z-score>
0.428

$$$$
